// provenance: ChEMBL document CHEMBL4339207

target: Glycogen synthase kinase-3 (Sus scrofa) (UniProt B2LUN4+I6LNT8); assay: Inhibition of porcine brain GSK3alpha/beta assessed as residual activity at 10 uM using YRRAAVPPSPSLSRHSSPHQSpEDEEE as substrate in presence of [gamma33P]ATP relative to control
Quick reference for Activity among some compounds

| smiles_str | target_entity | scale_unit | Activity |
| --- | --- | --- | --- |
| CN(C)CNc1ncc2cc3cnccc3c([N+](=O)[O-])c2n1 | Glycogen synthase kinase-3 (Sus scrofa) (UniProt B2LUN4+I6LNT8) | % | 15 |
| CN(C)/C=N/c1ncc2cc3cnccc3c([N+](=O)[O-])c2n1 | Glycogen synthase kinase-3 (Sus scrofa) (UniProt B2LUN4+I6LNT8) | % | 30 |
| CC(C)N(CNc1ncc2cc3cnccc3c([N+](=O)[O-])c2n1)C(C)C | Glycogen synthase kinase-3 (Sus scrofa) (UniProt B2LUN4+I6LNT8) | % | 1 |
| CC(C)N(/C=N/c1ncc2cc3cnccc3c([N+](=O)[O-])c2n1)C(C)C | Glycogen synthase kinase-3 (Sus scrofa) (UniProt B2LUN4+I6LNT8) | % | 15 |
| Nc1ncc2cc3cnccc3c([N+](=O)[O-])c2n1 | Glycogen synthase kinase-3 (Sus scrofa) (UniProt B2LUN4+I6LNT8) | % | 25 |

###

Collected Activity values appear next to each entry.
species: Sus scrofa; test: Inhibition of porcine brain CK1delta/epsilon assessed as residual activity at 1 uM using RRKHAAIGSpAYSITA as substrate in presence of [gamma33P]ATP relative to control

| smiles_str | Activity / % |
| --- | --- |
| CC(C)N(/C=N/c1ncc2cc3cnccc3c([N+](=O)[O-])c2n1)C(C)C | 96 |
| CN(C)/C=N/c1ncc2cc3cnccc3c([N+](=O)[O-])c2n1 | 100 |
| Nc1ncc2cc3cnccc3c([N+](=O)[O-])c2n1 | 41 |
| CN(C)CNc1ncc2cc3cnccc3c([N+](=O)[O-])c2n1 | 100 |
| CC(C)N(CNc1ncc2cc3cnccc3c([N+](=O)[O-])c2n1)C(C)C | 74 |

###

Listed compounds paired with reported Activity
target: UniProt:P22518; assay: Inhibition of recombinant mouse CLK1 expressed in bacteria assessed as residual activity at 1 uM using GRSRSRSRSRSR as substrate in presence of [gamma33P]ATP relative to control

| smiles_str | target_entity | Activity / % |
| --- | --- | --- |
| CN(C)/C=N/c1ncc2cc3cnccc3c([N+](=O)[O-])c2n1 | UniProt:P22518 | 33 |
| CC(C)N(/C=N/c1ncc2cc3cnccc3c([N+](=O)[O-])c2n1)C(C)C | UniProt:P22518 | 53 |
| CN(C)CNc1ncc2cc3cnccc3c([N+](=O)[O-])c2n1 | UniProt:P22518 | 13 |
| Nc1ncc2cc3cnccc3c([N+](=O)[O-])c2n1 | UniProt:P22518 | 6 |
| CC(C)N(CNc1ncc2cc3cnccc3c([N+](=O)[O-])c2n1)C(C)C | UniProt:P22518 | 44 |

###

target: Dual specificity tyrosine-phosphorylation-regulated kinase 1A (Rattus norvegicus, UniProt Q63470); assay: Inhibition of recombinant full-length rat N-terminal GST-tagged DYRK1A was expressed in Escherichia coli using DYRKtide as substrate measured after 60 mins by ADP-Glo luminescence assay

| smiles_str | IC50 |
| --- | --- |
| Nc1ncc2ccc3ccncc3c2n1 | 2180 nM |

###

target: Dual specificity protein kinase CLK1 (Mus musculus) (UniProt P22518); experiment: Inhibition of recombinant mouse CLK1 expressed in bacteria assessed as residual activity at 10 uM using GRSRSRSRSRSR as substrate in presence of [gamma33P]ATP relative to control
Sequence (P22518 whole entry, looked up): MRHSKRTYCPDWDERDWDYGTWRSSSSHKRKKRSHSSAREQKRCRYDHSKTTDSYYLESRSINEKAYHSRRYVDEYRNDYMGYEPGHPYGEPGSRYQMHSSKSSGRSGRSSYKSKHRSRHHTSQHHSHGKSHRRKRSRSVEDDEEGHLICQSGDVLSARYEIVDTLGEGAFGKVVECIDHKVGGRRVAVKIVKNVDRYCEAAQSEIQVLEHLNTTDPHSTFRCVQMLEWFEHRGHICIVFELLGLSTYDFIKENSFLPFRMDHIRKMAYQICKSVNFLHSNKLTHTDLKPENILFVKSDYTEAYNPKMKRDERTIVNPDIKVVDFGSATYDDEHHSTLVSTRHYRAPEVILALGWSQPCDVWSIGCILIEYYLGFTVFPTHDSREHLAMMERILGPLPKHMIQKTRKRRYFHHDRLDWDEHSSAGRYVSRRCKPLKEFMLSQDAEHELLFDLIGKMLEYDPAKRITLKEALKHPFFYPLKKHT
Use true when the recorded Activity is no lower than 2%; use false when it is lower.

| smiles_str | qualitative_label |
| --- | --- |
| CN(C)CNc1ncc2cc3cnccc3c([N+](=O)[O-])c2n1 | true |
| CC(C)N(/C=N/c1ncc2cc3cnccc3c([N+](=O)[O-])c2n1)C(C)C | false |
| CC(C)N(CNc1ncc2cc3cnccc3c([N+](=O)[O-])c2n1)C(C)C | true |
| CN(C)/C=N/c1ncc2cc3cnccc3c([N+](=O)[O-])c2n1 | true |

###

molecular target: Dual specificity tyrosine-phosphorylation-regulated kinase 1A (Rattus norvegicus) (UniProt Q63470); test: Inhibition of rat DYRK1A kinase domain (1 to 499 residues) expressed in bacteria assessed as residual activity at 1 uM using KKISGRLSPIMTEQ as substrate in presence of [gamma33P]ATP relative to control

| smiles_str | Activity / % |
| --- | --- |
| CC(C)N(/C=N/c1ncc2cc3cnccc3c([N+](=O)[O-])c2n1)C(C)C | 95 |
| Nc1ncc2cc3cnccc3c([N+](=O)[O-])c2n1 | 36 |
| CN(C)/C=N/c1ncc2cc3cnccc3c([N+](=O)[O-])c2n1 | 100 |
| CN(C)CNc1ncc2cc3cnccc3c([N+](=O)[O-])c2n1 | 39 |
| CC(C)N(CNc1ncc2cc3cnccc3c([N+](=O)[O-])c2n1)C(C)C | 69 |

###

target: Glycogen synthase kinase-3 (Sus scrofa) (UniProt B2LUN4+I6LNT8); test: Inhibition of porcine brain GSK3alpha/beta assessed as residual activity at 1 uM using YRRAAVPPSPSLSRHSSPHQSpEDEEE as substrate in presence of [gamma33P]ATP relative to control

| smiles_str | Activity [%] |
| --- | --- |
| CN(C)CNc1ncc2cc3cnccc3c([N+](=O)[O-])c2n1 | 73 |
| CC(C)N(/C=N/c1ncc2cc3cnccc3c([N+](=O)[O-])c2n1)C(C)C | 73 |
| CN(C)/C=N/c1ncc2cc3cnccc3c([N+](=O)[O-])c2n1 | 86 |
| CC(C)N(CNc1ncc2cc3cnccc3c([N+](=O)[O-])c2n1)C(C)C | 53 |
| Nc1ncc2cc3cnccc3c([N+](=O)[O-])c2n1 | 74 |

###

molecular target: Dual specificity protein kinase CLK1 (Homo sapiens, UniProt P49759); experiment: Inhibition of recombinant human N-terminal GST-tagged CLK1 (129 to end residues) expressed in baculovirus infected Sf9 insect cells sing MBP as substrate measured after 60 mins by ADP-Glo luminescence assay
Sequence (P49759 whole entry): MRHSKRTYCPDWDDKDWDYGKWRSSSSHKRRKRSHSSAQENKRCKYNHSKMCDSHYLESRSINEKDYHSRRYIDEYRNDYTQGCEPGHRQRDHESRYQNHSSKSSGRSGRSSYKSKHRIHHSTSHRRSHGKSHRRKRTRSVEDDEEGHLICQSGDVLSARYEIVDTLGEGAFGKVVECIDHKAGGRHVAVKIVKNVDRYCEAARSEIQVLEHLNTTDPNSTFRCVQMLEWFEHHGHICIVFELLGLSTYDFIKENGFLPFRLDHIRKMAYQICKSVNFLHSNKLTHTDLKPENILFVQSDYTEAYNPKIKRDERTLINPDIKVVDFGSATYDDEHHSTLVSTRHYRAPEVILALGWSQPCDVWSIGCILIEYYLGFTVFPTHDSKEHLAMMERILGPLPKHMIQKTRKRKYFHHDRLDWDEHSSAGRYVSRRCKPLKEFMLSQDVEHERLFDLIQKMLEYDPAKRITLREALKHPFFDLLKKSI

| smiles_str | IC50 (nM) |
| --- | --- |
| Nc1ncc2ccc3ccncc3c2n1 | 1480 |

###

target: Dual specificity protein kinase CLK1 (Mus musculus); assay: Inhibition of recombinant mouse CLK1 expressed in bacteria using GRSRSRSRSRSR as substrate in presence of [gamma33P]ATP
pIC50: −log10 of the molar value.

| smiles_str | pIC50 |
| --- | --- |
| CN(C)CNc1ncc2cc3cnccc3c([N+](=O)[O-])c2n1 | 7.06 |

###

Activity values by entry
molecular target: Cyclin-dependent kinase 5/CDK5 activator 1 (Homo sapiens) (UniProt Q00535+Q15078); assay: Inhibition of recombinant human CDK5/p25 expressed in bacteria assessed as residual activity at 10 uM using histone H1 as substrate in presence of [gamma33P]ATP relative to control
Sequence (Q00535 whole entry): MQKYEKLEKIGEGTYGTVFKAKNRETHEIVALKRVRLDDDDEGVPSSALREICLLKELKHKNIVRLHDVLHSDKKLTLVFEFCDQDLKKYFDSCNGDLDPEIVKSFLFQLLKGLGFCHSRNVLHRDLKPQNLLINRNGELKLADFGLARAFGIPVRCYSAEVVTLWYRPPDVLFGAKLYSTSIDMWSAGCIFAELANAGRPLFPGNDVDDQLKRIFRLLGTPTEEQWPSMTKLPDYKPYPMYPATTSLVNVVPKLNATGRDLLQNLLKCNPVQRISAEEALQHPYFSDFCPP
Sequence (Q15078 99-307 partner limits assumed): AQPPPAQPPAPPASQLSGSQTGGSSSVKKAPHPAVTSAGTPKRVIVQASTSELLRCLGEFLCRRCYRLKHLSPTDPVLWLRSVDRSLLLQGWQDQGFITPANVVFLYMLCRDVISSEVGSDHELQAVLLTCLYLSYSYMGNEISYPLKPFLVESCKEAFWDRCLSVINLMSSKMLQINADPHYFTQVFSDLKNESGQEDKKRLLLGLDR

| smiles_str | target_entity | scale_unit | Activity |
| --- | --- | --- | --- |
| Nc1ncc2cc3cnccc3c([N+](=O)[O-])c2n1 | Cyclin-dependent kinase 5/CDK5 activator 1 (Homo sapiens) (UniProt Q00535+Q15078) | % | 56 |
| CN(C)/C=N/c1ncc2cc3cnccc3c([N+](=O)[O-])c2n1 | Cyclin-dependent kinase 5/CDK5 activator 1 (Homo sapiens) (UniProt Q00535+Q15078) | % | 59 |
| CN(C)CNc1ncc2cc3cnccc3c([N+](=O)[O-])c2n1 | Cyclin-dependent kinase 5/CDK5 activator 1 (Homo sapiens) (UniProt Q00535+Q15078) | % | 41 |
| CC(C)N(/C=N/c1ncc2cc3cnccc3c([N+](=O)[O-])c2n1)C(C)C | Cyclin-dependent kinase 5/CDK5 activator 1 (Homo sapiens) (UniProt Q00535+Q15078) | % | 45 |
| CC(C)N(CNc1ncc2cc3cnccc3c([N+](=O)[O-])c2n1)C(C)C | Cyclin-dependent kinase 5/CDK5 activator 1 (Homo sapiens) (UniProt Q00535+Q15078) | % | 61 |

###

Activity: recorded values
species: Sus scrofa; experiment: Inhibition of porcine brain CK1delta/epsilon assessed as residual activity at 10 uM using RRKHAAIGSpAYSITA as substrate in presence of [gamma33P]ATP relative to control
assay_readout: Activity (%)

| smiles_str | scale_unit | measured_number |
| --- | --- | --- |
| CC(C)N(CNc1ncc2cc3cnccc3c([N+](=O)[O-])c2n1)C(C)C | % | 38 |
| Nc1ncc2cc3cnccc3c([N+](=O)[O-])c2n1 | % | 9 |
| CN(C)CNc1ncc2cc3cnccc3c([N+](=O)[O-])c2n1 | % | 38 |
| CN(C)/C=N/c1ncc2cc3cnccc3c([N+](=O)[O-])c2n1 | % | 53 |
| CC(C)N(/C=N/c1ncc2cc3cnccc3c([N+](=O)[O-])c2n1)C(C)C | % | 60 |
